src = patent US12545637B2

# Test system: female BALB/C mice
# measurement_description: In vivo imaging in mice of Fluc-mRNA LNP formulations (mRNA expression and duration)
# experimental_conditions: 7 d
# Source text: […]
assay_metric: average radiation intensity, times that of HHMA

[[record]]
structure_string = "CCCCCCCCC(CCCCCCCC)C(=O)OCCCCCCN(CCO)CCN(CCO)CCCCCCOC(=O)C(CCCCCCCC)CCCCCCCC"
target_system = "female BALB/C mice"
measured = 1.67

[[record]]
structure_string = "CCCCCCCCC(CCCCCCCC)COC(=O)CCCCCN(CCCO)CCN(CCCO)CCCCCC(=O)OCC(CCCCCCCC)CCCCCCCC"
target_system = "female BALB/C mice"
measured = 1.59

[[record]]
structure_string = "CCCCCCCCC(CCCCCCCC)OC(=O)CCCCCCCN(CCO)CCN(CCO)CCCCCCCC(=O)OC(CCCCCCCC)CCCCCCCC"
target_system = "female BALB/C mice"
measured = 1.65

[[record]]
structure_string = "CCCCCCCCC(CCCCCCCC)OC(=O)CCCCCN(CCO)CCN(CCO)CCCCCC(=O)OC(CCCCCCCC)CCCCCCCC"
target_system = "female BALB/C mice"
measured = 1.76

[[record]]
structure_string = "CCCCCCCCCCCOC(=O)CCCN(CCO)CCN(CCO)CCCCCC(=O)OC(CCCCCCCC)CCCCCCCC"
target_system = "female BALB/C mice"
measured = 8.13

[[record]]
structure_string = "CCCCCCCCC(CCCCCCCC)COC(=O)CCCCCN(CCCO)CCCN(CCCO)CCCCCC(=O)OCC(CCCCCCCC)CCCCCCCC"
target_system = "female BALB/C mice"
measured = 1.69

